System: Lymphocytic leukemia P388
Assay: animal or person
Assay type: in vivo, BDF1 mice
Settings: ip, once daily 9 days; dose giving T/C survival of 125%; copper-chelated form unless otherwise stated
Exam item: assign rule met to entries whose Antitumor activity P388 (ED125) is below 0.7 mg/kg/day and rule not met to entries at or above 0.7 mg/kg/day. Note that a value of exactly 0.7 mg/kg/day receives rule not met.

Here's what some known entries look like.
{"columns": ["molecule", "assigned_label"],
 "data": [
  ["Cc1c(N)nc(C(CC(N)=O)NCC(N)C(N)=O)nc1C(=O)NC(C(=O)NC(C)C(O)CC(=O)NC(C(=O)NC(OC1OC(C)C(N)C(O)C1O)C(O)c1nc(-c2nc(C(=O)NCCC[S+](C)C)cs2)cs1)C(C)O)C(OC1OC(CO)C(O)C(O)C1OC1OC(CO)C(O)C(OC(N)=O)C1O)c1cnc[nH]1.Cl.Cl.Cl.[Cl-] (stereo not shown)", "rule not met"],
  ["CNCCCNC(=O)c1csc(-c2csc(C(O)C(NC(=O)C(NC(=O)CC(O)C(C)NC(=O)C(NC(=O)c3nc(C(CC(N)=O)NCC(N)C(N)=O)nc(N)c3C)C(OC3OC(CO)C(O)C(O)C3OC3OC(CO)C(O)C(OC(N)=O)C3O)c3c[nH]cn3)C(C)O)OC3OC(C)C(N)C(O)C3O)n2)n1 (stereo not shown) [Tallysomycin S11b]", "rule met"],
  ["Cc1c(N)nc(C(CC(N)=O)NCC(N)C(N)=O)nc1C(=O)NC(C(=O)NC(C)C(O)CC(=O)NC(C(=O)NC(OC1OC(C)C(N)C(O)C1O)C(O)c1nc(-c2nc(C(=O)NCC(O)CN)cs2)cs1)C(C)O)C(OC1OC(CO)C(O)C(O)C1OC1OC(CO)C(O)C(OC(N)=O)C1O)c1c[nH]cn1 (stereo not shown)", "rule not met"]
]}

Input line: Does this molecule meet the criterion Antitumor activity P388 (ED125) < 0.7 mg/kg/day? Cc1c(N)nc(C(CC(N)=O)NCC(N)C(N)=O)nc1C(=O)NC(C(=O)NC(C)C(O)CC(=O)NC(C(=O)NC(OC1OC(C)C(N)C(O)C1O)C(O)c1nc(-c2nc(C(=O)NCCNCCO)cs2)cs1)C(C)O)C(OC1OC(CO)C(O)C(O)C1OC1OC(CO)C(O)C(OC(N)=O)C1O)c1c[nH]cn1 (stereo not shown)
Output line: rule not met

Input line: Does this molecule meet the criterion Antitumor activity P388 (ED125) < 0.7 mg/kg/day? Cc1c(N)nc(C(CC(N)=O)NCC(N)C(N)=O)nc1C(=O)NC(C(=O)NC(C)C(O)CC(=O)NC(C(=O)NC(OC1OC(C)C(N)C(O)C1O)C(O)c1nc(-c2nc(C(=O)NCCCNCCCCN)cs2)cs1)C(C)O)C(OC1OC(CO)C(O)C(O)C1OC1OC(CO)C(O)C(OC(N)=O)C1O)c1c[nH]cn1 (stereo not shown) [Tallysomycin B (Cu-free), reference compound]
Output line: rule not met

Input line: Does this molecule meet the criterion Antitumor activity P388 (ED125) < 0.7 mg/kg/day? Cc1c(N)nc(C(CC(N)=O)NCC(N)C(N)=O)nc1C(=O)NC(C(=O)NC(C)C(O)CC(=O)NC(C(=O)NC(OC1OC(C)C(N)C(O)C1O)C(O)c1nc(-c2nc(C(=O)NCCNCC(C)O)cs2)cs1)C(C)O)C(OC1OC(CO)C(O)C(O)C1OC1OC(CO)C(O)C(OC(N)=O)C1O)c1c[nH]cn1 (stereo not shown)
Output line: rule met

###

Tested on: Bacillus subtilis PCI 219
Assay: MIC, two-fold agar dilution method
Assay type: cell-based
Conditions: nutrient agar
Experimental: The minimum inhibitory concentrations (MIC) of the semibiosynthetic tallysomycin derivatives of the present invention were determined against fungi and gram-positive, gram-negative and acid-fast bacteria by the two-fold agar dilution method. Nutrient agar was used for bacteria and Sabouraud agar for fungi. The results are shown in the table below comparatively with tallysomycin A and B.
recorded_endpoint: minimum inhibitory concentration (MIC)

Below, each entry is followed by its recorded minimum inhibitory concentration (MIC) result.
{"columns": ["compound", "recorded_endpoint", "result"],
 "data": [
  ["Cc1c(N)nc(C(CC(N)=O)NCC(N)C(N)=O)nc1C(=O)NC(C(=O)NC(C)C(O)CC(=O)NC(C(=O)NC(OC1OC(C)C(N)C(O)C1O)C(O)c1nc(-c2nc(C(=O)NCCCNCCO)cs2)cs1)C(C)O)C(OC1OC(CO)C(O)C(O)C1OC1OC(CO)C(O)C(OC(N)=O)C1O)c1c[nH]cn1 (stereo not drawn)", "minimum inhibitory concentration (MIC)", 0.02],
  ["Cc1c(N)nc([C@H](CC(N)=O)NC[C@H](N)C(N)=O)nc1C(=O)N[C@H](C(=O)N[C@H](C)[C@@H](O)CC(=O)N[C@H](C(=O)NC(O[C@@H]1O[C@@H](C)[C@@H](N)[C@@H](O)[C@H]1O)C(O)c1nc(-c2nc(C(=O)NCCCC(N)CC(=O)NCCCNCCCCN)cs2)cs1)[C@@H](C)O)[C@H](O[C@@H]1O[C@@H](CO)[C@@H](O)[C@H](O)[C@@H]1O[C@H]1O[C@H](CO)[C@@H](O)[C@H](OC(N)=O)[C@@H]1O)c1c[nH]cn1 (stereo partly drawn) [Tallysomycin A, reference compound]", "minimum inhibitory concentration (MIC)", "< 0.003"],
  ["Cc1c(N)nc(C(CC(N)=O)NCC(N)C(N)=O)nc1C(=O)NC(C(=O)NC(C)C(O)CC(=O)NC(C(=O)NC(OC1OC(C)C(N)C(O)C1O)C(O)c1nc(-c2nc(C(=O)NCCCC(N)CC(=O)NCCCN(CCO)CCO)cs2)cs1)C(C)O)C(OC1OC(CO)C(O)C(O)C1OC1OC(CO)C(O)C(OC(N)=O)C1O)c1c[nH]cn1 (stereo not drawn)", "minimum inhibitory concentration (MIC)", 0.006],
  ["Cc1c(N)nc(C(CC(N)=O)NCC(N)C(N)=O)nc1C(=O)NC(C(=O)NC(C)C(O)CC(=O)NC(C(=O)NC(OC1OC(C)C(N)C(O)C1O)C(O)c1nc(-c2nc(C(=O)NCCNCC(C)O)cs2)cs1)C(C)O)C(OC1OC(CO)C(O)C(O)C1OC1OC(CO)C(O)C(OC(N)=O)C1O)c1c[nH]cn1 (stereo not drawn)", "minimum inhibitory concentration (MIC)", 0.025],
  ["CNCCCNC(=O)CC(N)CCCNC(=O)c1csc(-c2csc(C(O)C(NC(=O)C(NC(=O)CC(O)C(C)NC(=O)C(NC(=O)c3nc(C(CC(N)=O)NCC(N)C(N)=O)nc(N)c3C)C(OC3OC(CO)C(O)C(O)C3OC3OC(CO)C(O)C(OC(N)=O)C3O)c3c[nH]cn3)C(C)O)OC3OC(C)C(N)C(O)C3O)n2)n1 (stereo not drawn) [Tallysomycin S11a]", "minimum inhibitory concentration (MIC)", 0.025]
]}

Okay, next one:
Input line: Please report minimum inhibitory concentration (MIC) for the following compound: CNCCCNC(=O)c1csc(-c2csc(C(O)C(NC(=O)C(NC(=O)CC(O)C(C)NC(=O)C(NC(=O)c3nc(C(CC(N)=O)NCC(N)C(N)=O)nc(N)c3C)C(OC3OC(CO)C(O)C(O)C3OC3OC(CO)C(O)C(OC(N)=O)C3O)c3c[nH]cn3)C(C)O)OC3OC(C)C(N)C(O)C3O)n2)n1 (stereo not drawn) [Tallysomycin S11b]
Output line: 0.1

###

Tested on: lysogenic bacterium E. coli W1709 (λ)
Test: Prophage induction of lysogenic bacterium (ILB activity)
Assay type: cell-based
Details: t/c ratio of plaque counts greater than 3.0
Exercise: for every item that follows, state its recorded ILB activity (minimum inducible concentration).
Answers are plain numbers, in µg/mL.

Below, each entry is followed by its recorded ILB activity (minimum inducible concentration) result.
{"columns": ["compound", "result_number"],
 "data": [
  ["Cc1c(N)nc([C@H](CC(N)=O)NC[C@H](N)C(N)=O)nc1C(=O)N[C@H](C(=O)N[C@H](C)[C@@H](O)CC(=O)N[C@H](C(=O)NC(O[C@@H]1O[C@@H](C)[C@@H](N)[C@@H](O)[C@H]1O)C(O)c1nc(-c2nc(C(=O)NCCCCN)cs2)cs1)[C@@H](C)O)[C@@H](O[C@@H]1O[C@@H](CO)[C@@H](O)[C@H](O)[C@@H]1O[C@H]1O[C@H](CO)[C@@H](O)[C@H](OC(N)=O)[C@@H]1O)c1cnc[nH]1 (stereo partly drawn) [Tallysomycin S10b]", 0.31],
  ["CNCCCNC(=O)c1csc(-c2csc(C(O)C(NC(=O)C(NC(=O)CC(O)C(C)NC(=O)C(NC(=O)c3nc(C(CC(N)=O)NCC(N)C(N)=O)nc(N)c3C)C(OC3OC(CO)C(O)C(O)C3OC3OC(CO)C(O)C(OC(N)=O)C3O)c3c[nH]cn3)C(C)O)OC3OC(C)C(N)C(O)C3O)n2)n1 (stereo not drawn) [Tallysomycin S11b]", 0.63],
  ["Cc1c(N)nc(C(CC(N)=O)NCC(N)C(N)=O)nc1C(=O)NC(C(=O)NC(C)C(O)CC(=O)NC(C(=O)NC(OC1OC(C)C(N)C(O)C1O)C(O)c1nc(-c2nc(C(=O)NCCN)cs2)cs1)C(C)O)C(OC1OC(CO)C(O)C(O)C1OC1OC(CO)C(O)C(OC(N)=O)C1O)c1c[nH]cn1 (stereo not drawn)", 0.31],
  ["Cc1c(N)nc(C(CC(N)=O)NCC(N)C(N)=O)nc1C(=O)NC(C(=O)NC(C)C(O)CC(=O)NC(C(=O)NC(OC1OC(C)C(N)C(O)C1O)C(O)c1nc(-c2nc(C(=O)NCCCNCCO)cs2)cs1)C(C)O)C(OC1OC(CO)C(O)C(O)C1OC1OC(CO)C(O)C(OC(N)=O)C1O)c1c[nH]cn1 (stereo not drawn)", 0.08],
  ["Cc1c(N)nc(C(CC(N)=O)NCC(N)C(N)=O)nc1C(=O)NC(C(=O)NC(C)C(O)CC(=O)NC(C(=O)NC(OC1OC(C)C(N)C(O)C1O)C(O)c1nc(-c2nc(C(=O)NCCCN3CCCCC3C)cs2)cs1)C(C)O)C(OC1OC(CO)C(O)C(O)C1OC1OC(CO)C(O)C(OC(N)=O)C1O)c1c[nH]cn1 (stereo not drawn) [Tallysomycin S13b]", 0.08]
]}

Input line: Print lysogenic bacterium E. coli W1709 (λ) ILB activity (minimum inducible concentration) for Cc1c(N)nc(C(CC(N)=O)NCC(N)C(N)=O)nc1C(=O)NC(C(=O)NC(C)C(O)CC(=O)NC(C(=O)NC(OC1OC(C)C(N)C(O)C1O)C(O)c1nc(-c2nc(C(=O)NCCCN3CCOCC3)cs2)cs1)C(C)O)C(OC1OC(CO)C(O)C(O)C1OC1OC(CO)C(O)C(OC(N)=O)C1O)c1c[nH]cn1 (stereo not drawn) [Tallysomycin S12b] .
Output line: 0.31
